# merged literature set: log10(Ki) with Adenosine receptor A2a (Homo sapiens, UniProt P29274)
# Sequence (P29274 whole entry): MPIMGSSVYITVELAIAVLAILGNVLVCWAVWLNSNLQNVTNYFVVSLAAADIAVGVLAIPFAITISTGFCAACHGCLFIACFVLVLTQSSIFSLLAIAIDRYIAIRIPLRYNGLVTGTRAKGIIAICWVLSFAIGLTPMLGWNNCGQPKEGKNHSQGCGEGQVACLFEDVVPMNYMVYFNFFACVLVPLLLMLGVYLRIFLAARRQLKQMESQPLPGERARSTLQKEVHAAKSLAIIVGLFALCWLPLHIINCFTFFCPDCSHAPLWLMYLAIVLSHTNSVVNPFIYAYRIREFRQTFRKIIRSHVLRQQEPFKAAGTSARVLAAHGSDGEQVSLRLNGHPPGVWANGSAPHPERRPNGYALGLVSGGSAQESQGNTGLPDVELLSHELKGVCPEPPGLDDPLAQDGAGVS
In our notation, the value equals log10 of Ki in nM.

What value of measured log10(Ki) is listed for Nc1ccc(-c2cn3c(=O)n(-c4ccccc4)nc3c(N)n2)cc1 ?
1.36

Next:
What value of measured log10(Ki) is listed for CCCn1cc2nc(NC(=O)Nc3ccc(OC)cc3)n3nc(-c4ccco4)nc3c2n1 ?
2.32

What value of measured log10(Ki) is listed for Cn1c(-n2nccn2)nc2c(N)nccc21 ?
1.71

What value of measured log10(Ki) is listed for O[C@@H]1[C@H](O)[C@@H]2C[C@@H]2[C@H]1n1cnc2c(NCCc3ccccc3)nc(I)nc21 ?
3.77

What value of measured log10(Ki) is listed for Cc1nc(NC(=O)c2ccccc2)c2nc(-c3ccccc3)sc2n1 ?
3.29

What value of measured log10(Ki) is listed for Cn1cc2c(nc(N3CCOCC3)n3nc(-c4ccco4)nc23)n1 ?
3.22

---

# merged literature set: Ki with Adenosine receptor A2a (Homo sapiens)

What Ki appears in the records for this molecule with Adenosine receptor A2a (Homo sapiens)? CCCn1c(=O)c2[nH]c(-c3ccc(OCC(=O)Nc4cc(OC)nc(OC)n4)cc3)cc2n(CCC)c1=O
89.1 nM

What Ki appears in the records for this molecule with Adenosine receptor A2a (Homo sapiens)? COc1cccc2cc(C(=O)NCCCN3CCN(CCCNC(=O)c4cc5cccc(OC)c5oc4=N)CC3)c(=N)oc12
316 nM

What Ki appears in the records for this molecule with Adenosine receptor A2a (Homo sapiens)? Cn1cc2c(nc(NC(=O)NC3CCN(Cc4cccnc4)CC3)n3nc(-c4ccco4)nc23)n1
> 5000 nM

What Ki appears in the records for this molecule with Adenosine receptor A2a (Homo sapiens)? CCCn1c(=O)c2[nH]c(-c3ccco3)c(O)c2n(CCC)c1=O
104 nM

What Ki appears in the records for this molecule with Adenosine receptor A2a (Homo sapiens)? CCOC(=O)C1=C(C)Nc2nc3ccccc3n2C1c1cnco1 (racemic)
282 nM

Next:
What Ki appears in the records for this molecule with Adenosine receptor A2a (Homo sapiens)? O=c1c2ncn3nc(-c4ccccc4)cc3c2c(-c2cccs2)nn1Cc1ccccc1
51 nM

What Ki appears in the records for this molecule with Adenosine receptor A2a (Homo sapiens)? Cc1ccc(-c2[nH]c3c(=O)n(C)c(=O)n(C)c3c2O)cc1
2450 nM

What Ki appears in the records for this molecule with Adenosine receptor A2a (Homo sapiens)? Cc1ccc(-c2nc(N)c3nc(-c4ccccc4)sc3n2)o1
22.4 nM

What Ki appears in the records for this molecule with Adenosine receptor A2a (Homo sapiens)? Cc1nc2c(=O)n(Cc3ccccc3)nc(-c3ccncc3)c2c2cc(-c3ccccc3)nn12
501 nM

What Ki appears in the records for this molecule with Adenosine receptor A2a (Homo sapiens)? Nc1nc(-c2cccc(CO)c2)nc2sc(-c3ccco3)nc12
2.1 nM

---

# merged literature set: pKi with Adenosine receptor A2a (Homo sapiens)
For clarity, pKi is expressed as the negative log10 of concentration in mol/L.

What value of measured pKi is listed for c1ccc(-c2nc(-c3ccccc3)c3nc(C4CCCC4)nc-3[nH]2)cc1 ?
7.26

What value of measured pKi is listed for Cc1nccnc1-c1nc2cc(N(C)CCN3CCN(c4ccc(F)cc4F)CC3)nc(N)n2n1 ?
9.52

Okay, next one:
What value of measured pKi is listed for Cn1cc2c(Cl)nc(N)nc2n1 ?
5.04
